remaining at 0 h, 200 µM values, listed per item
- protocol_details: Chemical stability in simulated gastric fluid assessed as remaining compound level incubated for 0 hrs at 200 uM at 40 degC by HPLC method
- Assay type: physicochemical
- measurement_context: read-out: Stability
Express your answer in %, writing the number without its unit.

Cc1cc(-c2ccc(SCC(=O)Nc3ccc(-c4cnccn4)cn3)cc2)ccn1 = 98

Problem: So what's the measured remaining at 0 h, 200 µM for this one? `Cc1cc(-c2ccc(NCC(=O)Nc3ccc(-c4cnccn4)cn3)cc2)ccn1`
Result: 95

Problem: What would you report for `Cc1cc(-c2ccc(CCC(=O)Nc3ccc(-c4cnccn4)cn3)cc2)ccn1` ?
Result: 100

Problem: What would you report for Cc1cc(-c2ccc(OC(C)C(=O)Nc3ccc(-c4cnccn4)cn3)cc2)ccn1 (stereo not given) ?
Result: 97

Problem: What would you report for `Cc1cc(-c2ccc(OCC(=O)Nc3ccc(-c4cnccn4)cn3)cc2)ccn1` ?
Result: 96

----------
- measured_target: Protein-serine O-palmitoleoyltransferase porcupine (Homo sapiens)
- Sequence (Q9H237 whole entry): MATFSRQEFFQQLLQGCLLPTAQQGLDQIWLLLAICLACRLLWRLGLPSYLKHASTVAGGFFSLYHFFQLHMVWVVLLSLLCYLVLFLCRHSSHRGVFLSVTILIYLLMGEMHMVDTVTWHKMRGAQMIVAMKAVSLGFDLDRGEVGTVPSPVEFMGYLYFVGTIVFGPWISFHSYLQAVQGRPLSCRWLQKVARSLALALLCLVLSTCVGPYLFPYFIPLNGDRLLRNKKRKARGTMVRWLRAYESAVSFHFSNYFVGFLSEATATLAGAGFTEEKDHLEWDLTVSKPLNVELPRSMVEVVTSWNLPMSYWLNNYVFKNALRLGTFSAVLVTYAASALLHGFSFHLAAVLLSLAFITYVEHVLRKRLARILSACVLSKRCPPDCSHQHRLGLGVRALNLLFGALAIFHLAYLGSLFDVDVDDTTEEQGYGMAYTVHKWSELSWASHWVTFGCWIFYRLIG
- protocol_details: Inhibition of porcupine (unknown origin) expressed in mouse L Wnt3A cells co-cultured with TM3 cells harboring luciferase reporter gene assessed as reduction in Wnt ligand-driven LEF/TCF-dependent transcriptional activity
IC50 values, listed per item
Express your answer in nM, writing the number without its unit.

Problem: So what's the measured IC50 for this one? `Cc1cc(-c2ccc(OC(=O)Nc3ccc(-c4cccnc4)cc3)cc2)ccn1`
Result: 2.2

Problem: What would you report for `Cc1cc(-c2cccc(NCC(=O)Nc3ccc(-c4cnccn4)cn3)c2)ccn1` ?
Result: 164

Problem: What would you report for `CC(=O)N1CCN(c2ccc(OCC(=O)Nc3ccc(-c4cnccn4)cn3)cc2)CC1` ?
Result: 483

Problem: What would you report for `O=C(COc1ccc2ccncc2c1)Nc1ccc(-c2cnccn2)cn1` ?
Result: 30

Problem: What would you report for Cc1cc(-c2ccc(OC(C)C(=O)Nc3ccc(-c4cnccn4)cn3)cc2)ccn1 (stereo not drawn) ?
Result: 0.11

----------
- measured_target: CYP2D6 (Homo sapiens)
- Sequence (P10635 whole entry): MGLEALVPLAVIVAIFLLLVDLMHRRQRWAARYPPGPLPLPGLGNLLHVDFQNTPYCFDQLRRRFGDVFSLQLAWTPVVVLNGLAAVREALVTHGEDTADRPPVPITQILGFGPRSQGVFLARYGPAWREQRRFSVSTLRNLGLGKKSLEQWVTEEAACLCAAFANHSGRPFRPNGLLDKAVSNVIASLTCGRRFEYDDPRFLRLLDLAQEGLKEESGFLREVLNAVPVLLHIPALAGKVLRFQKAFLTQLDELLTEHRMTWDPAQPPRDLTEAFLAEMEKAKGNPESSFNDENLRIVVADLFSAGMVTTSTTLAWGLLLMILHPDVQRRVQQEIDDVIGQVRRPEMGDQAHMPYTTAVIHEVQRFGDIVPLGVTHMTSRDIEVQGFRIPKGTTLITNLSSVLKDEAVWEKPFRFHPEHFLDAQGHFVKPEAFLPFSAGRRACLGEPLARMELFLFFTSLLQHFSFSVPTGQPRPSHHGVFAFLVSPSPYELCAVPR
- protocol_details: Inhibition of CYP2D6 in human liver microsomes at 10 uM pre-incubated for 10 mins before dextromethorphan substrate and NADPH addition by LC-MS/MS method
- Format: ADME
- measurement_context: probe dextromethorphan
inhibition at 10 µM values, listed per item
Express your answer in %, writing the number without its unit.

Cc1cc(-c2ccc(OC(C)C(=O)Nc3ccc(-c4cnccn4)cn3)cc2)ccn1 (stereo not given) = 53
Cc1cc(-c2ccc(SCC(=O)Nc3ccc(-c4cnccn4)cn3)cc2)ccn1 = 45
Cc1cc(-c2ccc(NCC(=O)Nc3ccc(-c4cnccn4)cn3)cc2)ccn1 = 53
Cc1cc(-c2ccc(CCC(=O)Nc3ccc(-c4cnccn4)cn3)cc2)ccn1 = 47

The record that follows has no inhibition at 10 µM shown yet.
Problem: So what's the measured inhibition at 10 µM for this one? `Cc1cc(-c2ccc(OCC(=O)Nc3ccc(-c4cnccn4)cn3)cc2)ccn1`
Result: 19

----------
remaining at 0.5 h, 1 µM values, listed per item
- protocol_details: Stability of the compound in rat plasma assessed as drug remaining at 1 uM incubated for 30 mins by LC-MS/MS method
- Assay type: ADME, cell-free
- measurement_context: read-out: Stability
Express your answer in %, writing the number without its unit.

Cc1cc(-c2ccc(OC(C)C(=O)Nc3ccc(-c4cnccn4)cn3)cc2)ccn1 (stereo not given) = 100
Cc1cc(-c2ccc(CCC(=O)Nc3ccc(-c4cnccn4)cn3)cc2)ccn1 = 98
Cc1cc(-c2ccc(SCC(=O)Nc3ccc(-c4cnccn4)cn3)cc2)ccn1 = 93
Cc1cc(-c2ccc(NCC(=O)Nc3ccc(-c4cnccn4)cn3)cc2)ccn1 = 100

Problem: So what's the measured remaining at 0.5 h, 1 µM for this one? `Cc1cc(-c2ccc(OCC(=O)Nc3ccc(-c4cnccn4)cn3)cc2)ccn1`
Result: 97
